# tested_system: human V1a receptor (Homo sapiens, UniProt P37288)
# Construct: expressed in transfected cells; host or cells: CHO K1 (ATCC), also stably transfected with a modified aequorin
# Sequence (P37288 whole entry): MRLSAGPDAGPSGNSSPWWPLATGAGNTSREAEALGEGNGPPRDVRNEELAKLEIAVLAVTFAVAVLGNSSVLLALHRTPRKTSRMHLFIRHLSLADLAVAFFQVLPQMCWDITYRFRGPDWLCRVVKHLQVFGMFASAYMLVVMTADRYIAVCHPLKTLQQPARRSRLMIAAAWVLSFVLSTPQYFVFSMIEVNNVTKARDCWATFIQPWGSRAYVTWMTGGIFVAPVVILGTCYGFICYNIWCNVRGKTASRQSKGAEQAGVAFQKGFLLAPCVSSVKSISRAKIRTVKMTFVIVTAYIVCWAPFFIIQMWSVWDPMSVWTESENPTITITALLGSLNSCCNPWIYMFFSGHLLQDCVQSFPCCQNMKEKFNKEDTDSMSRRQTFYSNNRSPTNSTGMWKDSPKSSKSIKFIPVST
# assay_notes: Cellular in vitro assay for determining vasopressin receptor activity, V1a receptor cell line (CHO, aequorin luminescence)
# Assay type: cell-based
# condition_info: selectivity ratio IC50 hV2 / IC50 hV1a

input_smiles: COC[C@@H]1CCCN1C(=O)c1cccnc1-n1cnc(Cn2nc(-c3ccc(Cl)cc3)n(C[C@H](O)C(F)(F)F)c2=O)n1
tested_system: human V1a receptor (Homo sapiens, UniProt P37288)
ratio IC50 hV2/hV1a: 67.8
//
input_smiles: CC1(C)COCCN1C(=O)c1ccccc1-n1cnc(Cn2nc(-c3ccc(Cl)cc3)n(C[C@H](O)C(F)(F)F)c2=O)n1
tested_system: human V1a receptor (Homo sapiens, UniProt P37288)
ratio IC50 hV2/hV1a: 2500.0
//
input_smiles: CC1=C(C)CN(C(=O)c2ccccc2-n2cnc(Cn3nc(-c4ccc(Cl)cc4)n(C[C@H](O)C(F)(F)F)c3=O)n2)CC1
tested_system: human V1a receptor (Homo sapiens, UniProt P37288)
ratio IC50 hV2/hV1a: 29.8

###

# tested_system: human V1a receptor (Homo sapiens, UniProt P37288)
# Construct: expressed in transfected cells; host or cells: CHO K1 (ATCC), also stably transfected with a modified aequorin
# assay_notes: Cellular in vitro assay for determining vasopressin receptor activity, V1a receptor cell line (CHO, aequorin luminescence)
# Format: cell-based
# condition_info: selectivity ratio IC50 hV2 / IC50 hV1a
Catalogue of compounds with associated ratio IC50 hV2/hV1a
value_kind: ratio IC50 hV2/hV1a

compound: O=C(N[C@H]1C[C@H]1F)c1cccc(Cl)c1-n1cnc(Cn2nc(-c3ccc(Cl)cc3)n(C[C@H](O)C(F)(F)F)c2=O)n1 (racemic)
value_kind: ratio IC50 hV2/hV1a
numeric_result: 315.1
--
compound: CC1(C)CCN(C(=O)c2ccccc2-n2cnc(Cn3nc(-c4ccc(Cl)cc4)n(C[C@H](O)C(F)(F)F)c3=O)n2)CC1
value_kind: ratio IC50 hV2/hV1a
numeric_result: 339.6
--
compound: Cc1c(F)cccc1NC(=O)c1ccccc1-n1cnc(Cn2nc(-c3ccc(Cl)cc3)n(C[C@H](O)C(F)(F)F)c2=O)n1
value_kind: ratio IC50 hV2/hV1a
numeric_result: 77.2
--
compound: O=C(c1ccccc1-n1cnc(Cn2nc(-c3ccc(Cl)cc3)n(C[C@H](O)C(F)(F)F)c2=O)n1)N1C[C@@H]2C[C@H]1CO2
value_kind: ratio IC50 hV2/hV1a
numeric_result: 258.8
--
compound: NC(=O)C1(C(=O)Nc2ncccc2-n2cnc(Cn3nc(-c4ccc(Cl)cc4)n(C[C@H](O)C(F)(F)F)c3=O)n2)CC1
value_kind: ratio IC50 hV2/hV1a
numeric_result: 12.2
--
compound: CC(NC(=O)c1ccccc1-n1cnc(Cn2nc(-c3ccc(Cl)cc3)n(C[C@H](O)C(F)(F)F)c2=O)n1)c1ccon1 (stereo partly shown)
value_kind: ratio IC50 hV2/hV1a
numeric_result: 14.2
--
compound: CCCC(=O)Nc1ncccc1-n1cnc(Cn2nc(-c3ccc(Cl)cc3)n(C[C@H](O)C(F)(F)F)c2=O)n1
value_kind: ratio IC50 hV2/hV1a
numeric_result: 9.9
--
compound: CC1(C)CN(C(=O)c2ccccc2-n2cnc(Cn3nc(-c4ccc(Cl)cc4)n(C[C@H](O)C(F)(F)F)c3=O)n2)CCO1
value_kind: ratio IC50 hV2/hV1a
numeric_result: 386.0
--
compound: NC(CNC(=O)c1ccccc1-n1cnc(Cn2nc(-c3ccc(Cl)cc3)n(C[C@H](O)C(F)(F)F)c2=O)n1)C(F)(F)C(F)F (mixture of isomers)
value_kind: ratio IC50 hV2/hV1a
numeric_result: 38.9
--
compound: CC1(C)CN(C(=O)c2ncccc2-n2cnc(Cn3nc(-c4ccc(Cl)cc4)n(C[C@H](O)C(F)(F)F)c3=O)n2)CCO1
value_kind: ratio IC50 hV2/hV1a
numeric_result: 103.5
--
compound: CC(C)(C)C(=O)Nc1ncccc1-n1cnc(Cn2nc(-c3ccc(Cl)cc3)n(C[C@H](O)C(F)(F)F)c2=O)n1
value_kind: ratio IC50 hV2/hV1a
numeric_result: 16.0
--
compound: C=CCN(C)C(=O)c1ccccc1-n1cnc(Cn2nc(-c3ccc(Cl)cc3)n(C[C@H](O)C(F)(F)F)c2=O)n1
value_kind: ratio IC50 hV2/hV1a
numeric_result: 735.7
--
compound: O=C(Nc1ccncc1-n1cnc(Cn2nc(-c3ccc(Cl)cc3)n(C[C@H](O)C(F)(F)F)c2=O)n1)[C@@H]1C[C@@H]1F [Example 34]
value_kind: ratio IC50 hV2/hV1a
numeric_result: 92.1

###

# tested_system: human V1a receptor (Homo sapiens)
# assay_notes: Cellular in vitro assay for determining vasopressin receptor activity, V1a receptor cell line (CHO, aequorin luminescence)
# condition_info: CHO cell line transfected with human V1a receptor; [Arg]-vasopressin at EC50 concentration; read-out: IC50 hV1a
pIC50: −log10 of the molar value.

input_smiles: O=C(NCC(F)(F)F)c1ncccc1-n1cnc(Cn2nc(-c3ccc(Cl)cc3)n(C[C@H](O)C(F)(F)F)c2=O)n1
tested_system: human V1a receptor (Homo sapiens)
pIC50: 7.39
//
input_smiles: O=C(NC1CC(F)(F)C1)c1cccc(Cl)c1-n1cnc(Cn2nc(-c3ccc(Cl)cc3)n(C[C@H](O)C(F)(F)F)c2=O)n1
tested_system: human V1a receptor (Homo sapiens)
pIC50: 7.13
//
input_smiles: O=C(Nc1ccccc1F)c1ccccc1-n1cnc(Cn2nc(-c3ccc(Cl)cc3)n(C[C@H](O)C(F)(F)F)c2=O)n1
tested_system: human V1a receptor (Homo sapiens)
pIC50: 9.01
//
input_smiles: COC[C@@H]1CCCN1C(=O)c1ccccc1-n1cnc(Cn2nc(-c3ccc(Cl)cc3)n(C[C@H](O)C(F)(F)F)c2=O)n1
tested_system: human V1a receptor (Homo sapiens)
pIC50: 8.56
//
input_smiles: CS(=O)(=O)NCC(=O)Nc1cccnc1-n1cnc(Cn2nc(-c3ccc(Cl)cc3)n(C[C@H](O)C(F)(F)F)c2=O)n1
tested_system: human V1a receptor (Homo sapiens)
pIC50: 7.50
//
input_smiles: CC(C)CN(C)C(=O)c1ccccc1-n1cnc(Cn2nc(-c3ccc(Cl)cc3)n(C[C@H](O)C(F)(F)F)c2=O)n1
tested_system: human V1a receptor (Homo sapiens)
pIC50: 8.61

###

# tested_system: human V1a receptor (Homo sapiens)
# Construct: expressed in transfected cells; host or cells: CHO K1 (ATCC), also stably transfected with a modified aequorin
# assay_notes: Cellular in vitro assay for determining vasopressin receptor activity, V1a receptor cell line (CHO, aequorin luminescence)
# Assay type: cell-based
# condition_info: CHO cell line transfected with human V1a receptor; [Arg]-vasopressin at EC50 concentration; read-out: IC50 hV1a
Catalogue of compounds with associated log10(IC50)
value_kind: log10(IC50) (log10 of the value in nM)

compound: NC(=O)[C@H]1CC(F)(F)CN1C(=O)c1ccccc1-n1cnc(Cn2nc(-c3ccc(Cl)cc3)n(C[C@H](O)C(F)(F)F)c2=O)n1
value_kind: log10(IC50)
numeric_result: 1.34

compound: Cc1ccccc1C(=O)Nc1ncccc1-n1cnc(Cn2nc(-c3ccc(Cl)cc3)n(C[C@H](O)C(F)(F)F)c2=O)n1
value_kind: log10(IC50)
numeric_result: 2.08

compound: CC(C)(N)CNC(=O)c1nc(Cn2nc(-c3ccc(Cl)cc3)n(C[C@H](O)C(F)(F)F)c2=O)nn1-c1cnccc1C(=O)N[C@H]1C[C@H]1F (racemic)
value_kind: log10(IC50)
numeric_result: 1.92

compound: O=C(CC(F)(F)F)Nc1ncccc1-n1cnc(Cn2nc(-c3ccc(Cl)cc3)n(C[C@H](O)C(F)(F)F)c2=O)n1
value_kind: log10(IC50)
numeric_result: 0.75

compound: O=C(c1ccccc1-n1cnc(Cn2nc(-c3ccc(Cl)cc3)n(C[C@H](O)C(F)(F)F)c2=O)n1)N1CCCCCC1
value_kind: log10(IC50)
numeric_result: 0.26

compound: CC1(O)CCN(c2ccncc2-n2cnc(Cn3nc(-c4ccc(Cl)cc4)n(C[C@H](O)C(F)(F)F)c3=O)n2)C1 (mixture of isomers)
value_kind: log10(IC50)
numeric_result: 2.76

compound: CC(C)(C)CC(=O)Nc1ncccc1-n1cnc(Cn2nc(-c3ccc(Cl)cc3)n(C[C@H](O)C(F)(F)F)c2=O)n1
value_kind: log10(IC50)
numeric_result: 1.03

compound: CN1CC(C(=O)Nc2ncccc2-n2cnc(Cn3nc(-c4ccc(Cl)cc4)n(C[C@H](O)C(F)(F)F)c3=O)n2)CC1=O (stereo partly drawn)
value_kind: log10(IC50)
numeric_result: 1.95

compound: Cc1ccc(NC(=O)c2ccccc2-n2cnc(Cn3nc(-c4ccc(Cl)cc4)n(C[C@H](O)C(F)(F)F)c3=O)n2)c(F)c1
value_kind: log10(IC50)
numeric_result: 0.28

compound: CC(C)(O)CNc1ccncc1-n1cnc(Cn2nc(-c3ccc(Cl)cc3)n(C[C@H](O)C(F)(F)F)c2=O)n1
value_kind: log10(IC50)
numeric_result: 2.77

compound: O=C(N[C@H]1C[C@@H]1F)c1cccc(C(F)(F)F)c1-n1cnc(Cn2nc(-c3ccc(Cl)cc3)n(C[C@H](O)C(F)(F)F)c2=O)n1 (racemic)
value_kind: log10(IC50)
numeric_result: 1.48

compound: O=C(c1ncccc1-n1cnc(Cn2nc(-c3ccc(Cl)cc3)n(C[C@@H](O)C(F)(F)F)c2=O)n1)N1CCC(C(F)(F)F)C1 (mixture of isomers)
value_kind: log10(IC50)
numeric_result: 2.66
